Known Relative activity of a selection of compounds
Tested on: D-hydantoinase
Assay: Substrate selection of D-hydantoinase
Assay type: biochemical, Bacillus circulans
Conditions: substrate 10 mM; percentage based on activity for dihydrouracil
RESULT TYPE: Relative activity (%)

                                   compound  result_value
0                             O=C1CNC(=O)N1            76
1  O=C1NC(=O)C(c2ccc(O)cc2)N1 (racemic) [D,L-p-Hydroxyphenylhydantoin, D,L-p-hydroxyphenylhydantoin]            87
2  CSCCC1NC(=O)NC1=O (stereo not shown) [5-[2-(Methylthio)ethyl]-hydantoin, 5-[2-(methylthio)ethyl]hydantoin]            40
3            O=C1CCNC(=O)N1 [Dihydrouracil]           100
